System: CSF1R
measurement parameters: concentration: 1 μM, replicates: in singlicate; n = 1;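 further: KINOMEscan kinase panel screen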
Please go through the items and note down their %Inh.
Give bare numbers, in %.

# input molecule: Nc1nc(-c2cccnc2)c(-c2ccnc3ccccc23)s1 ; wanted: its %Inh
1

Each molecule below has a reported value. Please supply its %Inh.
1. CCc1nc(-c2cccc(C)c2)c(-c2ccnc(NC(=O)c3ccccc3)c2)s1
2. Cc1cc(N2CCC(NS(=O)(=O)c3ccc(F)cc3)CC2)nc(Nc2cccc(C#N)c2)n1.O=C(O)C(F)(F)F
3. FC(F)(F)c1ccc(-c2nn3ncccc3c2-c2ccnc(Nc3cccc(C(F)(F)F)c3)n2)cc1

1. 11
2. 0
3. 0

###

System: MRCKA
measurement parameters: concentration: 1 μM, replicates: in singlicate; n = 1
Exercise: for every item that follows, state its recorded %Inh.
Numbers only, in %.

Notebook: pull reported %Inh for MRCKA, entry C[C@@H]1CCN(C(=O)CO)C[C@@H]1N(C)c1ncnc2[nH]ccc12
0

CSc1ccc(NC2=C(c3ccccc3Cl)C(=O)NC2=O)cc1 , same question.
0

Now the compound CS(=O)(=O)CCNCc1ccc(-c2ccc3ncnc(Nc4ccc(OCc5ccccc5)c(Cl)c4)c3c2)o1.Cl
0

Also Cl.c1ccc(Cn2ccc3cc(Nc4ncnc5ccccc45)ccc32)cc1 , if possible.
7

Okay, here is my list. What is %Inh for each of these?
1. Cl.Fc1ccccc1COc1ccc(Nc2ncnc3ccc(-c4nnc(C(F)(F)F)o4)cc23)cc1Cl
2. CCc1nc(-c2cccc(N(C)S(=O)(=O)c3ccccc3)c2)c(-c2ccnc(Nc3ccc(N4CCN(C(C)=O)CC4)nc3)n2)s1
3. Fc1ccc(Nc2nccc(-c3c(-c4ccc(Cl)cc4)nn4ncccc34)n2)cc1F
4. Cn1ccc2ncnc(Nc3ccc(Oc4cccc(Cl)c4)c(Cl)c3)c21

[7, 0, 2, 0]

###

Please provide measured %Inh for the entries that follow.
System: HIPK3
measurement parameters: concentration: 1 μM, replicates: in singlicate; n = 1
Answers are plain numbers, in %.

Which %Inh is listed for O=C(Nc1ccccc1F)NC1CCN(c2ccnc(Nc3ccc(F)cc3)n2)C1 (stereo not drawn) [GSK1379722] ?
10

Query N#Cc1ccc(Oc2ccc(Nc3ncnc4cc[nH]c34)cc2Cl)cc1 next
10

And what about the compound Nc1n[nH]c2nnc(-c3ccccc3)cc12 [SB-517389] ?
83

# batch size: 8; output %Inh per entry
1. Cn1ccc2ncnc(Nc3ccc(Oc4cccc(Cl)c4)c(Cl)c3)c21
2. Cl.Cl.c1ccc(-c2cc3ccncc3cc2OC2CCNCC2)cc1 [GSK1122999]
3. CCc1nc(-c2cccc(C)c2)c(-c2ccnc(NC(=O)c3ccccc3)c2)s1
4. NC(=O)c1sc(-n2cnc3ccccc32)cc1OCc1ccccc1F [GSK1024306]
5. Nc1nc(-c2ccc3c(N)n[nH]c3c2)cc(N2CCC[C@@H](C(=O)Nc3ccccc3)C2)n1.O=C(O)C(F)(F)F.O=C(O)C(F)(F)F [GSK2288359]
6. Cc1ccc(C)c(NC(=O)NCCNc2ccnc(Nc3ccc(F)cc3)n2)c1 [GSK1379878]
7. Cl.c1ccc(Cn2ncc3cc(Nc4ncnc5ccccc45)ccc32)cc1 [GW273749]
8. CNc1nccc(-c2c(-c3ccc(F)cc3)ncn2CCCN2CCOCC2)n1 [SB-222516]

1: 22; 2: 20; 3: 0; 4: 0; 5: 6; 6: 0; 7: 0; 8: 0

Please state, for each entry, its recorded %Inh.
1. COc1ccc(NC(=O)c2ccc(-c3cc(-c4nnc(C)o4)ccc3C)cc2)cc1 [GW595885]
2. Fc1cccc(COc2ccc(Nc3ncnc4sc(-c5ccc[nH]5)cc34)cc2Cl)c1 [GW707818]
3. C[C@H]1CC[C@@H](C(=O)Nc2ccccc2)CN1c1cc(-c2ccc3c(N)n[nH]c3c2)nc(N)n1 [GSK2283293]
4. Clc1ccc(-c2cc(-c3c[nH]nc3-c3ccccn3)ccn2)cc1 [GW681251]
5. Oc1ccc2ncnc(Nc3ccc(OCc4ccccc4)cc3)c2c1 [GI262866]
6. COc1ccc(-c2oc3ncnc(N)c3c2-c2ccc(OC)cc2)cc1 [SB-589132]
7. CC(C)(C)c1ccc(-n2cnc3c(N)ncnc32)cc1 [SKF-97263]

1: 10; 2: 1; 3: 0; 4: 19; 5: 6; 6: 3; 7: 6
